assay: solvent given as SMILES; conditions: in Cc1ccccc1
// reported absorption maximum per item

- Compound: "N#Cc1cc(C#N)c(-c2ccc(N(c3ccccc3)c3ccccc3)cc2)cc1-c1ccc(N(c2ccccc2)c2ccccc2)cc1"
  absorption maximum (nm): 394
- Compound: "CCCCc1ccc(-n2c3c(c4c2c2c(n4-c4ccc(CCCC)cc4)-c4cc(F)ccc4NB2c2ccccc2)B(c2ccccc2)Nc2ccc(F)cc2-3)cc1"
  absorption maximum (nm): 395
- Compound: "O=c1c2ccccc2sc2ccc(-n3c4ccccc4c4ccccc43)cc12"
  absorption maximum (nm): 388
- Compound: "CC1(C)c2ccccc2-c2cc3c4ccccc4n(-c4ccc(-c5nc(-c6ccccc6)nc(-c6ccccc6)n5)cc4)c3cc21"
  absorption maximum (nm): 362
- Compound: "CCCCCCCCC(=O)Oc1cc2[nH]c(cc2CCOC)c2nc(ccc3[nH]c(cc3CCOC)c3nc1C(CCOC)=C3)C(CCOC)=C2"
  absorption maximum (nm): 647
- Compound: "COc1ccc(C#Cc2nc3ccccc3nc2-c2cn(C)c3ccccc23)cc1"
  absorption maximum (nm): 407
- Compound: "CCC1=C(C)C2=Cc3c4ccccc4c4n3[B-](c3ccc5cc6ccccc6cc5c3)(Oc3ccccc3-4)[N+]2=C1C (configuration not stated)"
  absorption maximum (nm): 630
- Compound: "CCOC(=O)/C(C#N)=C\\c1cn(-c2ccccc2)nc1-c1ccccc1"
  absorption maximum (nm): 353
- Compound: "CCN(CC)c1ccc(/C=C/c2cc(/C=C/c3ccc(N(CC)CC)cc3)nc(N)n2)cc1"
  absorption maximum (nm): 418
- Compound: "CC(C)c1cc(C(C)C)c(B2c3ccccc3Oc3cc(-n4c5ccccc5c5c6c(c7ccccc7n6-c6ccccc6)c6c(c7ccccc7n6-c6ccccc6)c54)ccc32)c(C(C)C)c1"
  absorption maximum (nm): 458
- Compound: "CC(C)(C)c1ccc2c(c1)c1cc(C(C)(C)C)ccc1n2-c1cc[n+]2c(c1)-c1ccccc1O[B-]2(F)F"
  absorption maximum (nm): 375
- Compound: "CCCCCCCCCC1(CCCCCCCCC)c2cc(C#Cc3ccc(/C=C/c4ccc(N(CCCCCCCC)CCCCCCCC)cc4)cc3)ccc2-c2ccc(C#Cc3ccc(/C=C/c4ccc(N(CCCCCCCC)CCCCCCCC)cc4)cc3)cc21"
  absorption maximum (nm): 411

###

assay: solvent given as SMILES; conditions: in ClCCl
Rule: absorption maximum below 400 nm gives rule met, anything at or above gives rule not met.

- Molecule: "N#Cc1cc(/C=C/c2ccc(N(c3ccccc3)c3ccccc3)cc2)ccc1/C=C/c1ccc(/C=C/c2ccc(N(c3ccccc3)c3ccccc3)cc2)cc1"
  Category label: "rule not met"
- Molecule: "CCCCOc1c(C#N)cc2cc(C#N)c(OCCCC)c3c4c(OCCCC)c(C#N)cc5cc(C#N)c(OCCCC)c(c1c23)c54"
  Category label: "rule not met"
- Molecule: "c1ccc(N(c2ccccc2)c2ccc(-c3ccc(-c4nc(-c5ccccn5)n(-c5ccccc5)n4)cc3)cc2)cc1"
  Category label: "rule met"
- Molecule: "COc1ccc(-c2cc3c(s2)c(C(C)=O)cc(=O)n3Cc2ccccc2)cc1"
  Category label: "rule not met"
- Molecule: "Cc1c(C)c2c3ccccc3[nH]c2c2ccccc12"
  Category label: "rule met"
- Molecule: "COc1c2ccccc2c(OC)c2c(C#CC(C)(C)C)c3cc4ccccc4cc3c(C#CC(C)(C)C)c12"
  Category label: "rule not met"
- Molecule: "CN(C)c1ccc(C2=Nc3scc(-c4ccc([N+](=O)[O-])cc4)[n+]3[B-](F)(F)O2)cc1"
  Category label: "rule not met"
- Molecule: "CC(=O)N(Cc1ccccn1)c1c2ccccc2c2c3c(cccc13)C(=O)N(Cc1ccccn1)C2=O"
  Category label: "rule not met"
- Molecule: "C(S/C=C/c1ccc(-c2ccc(/C=C/SC=C3CCCCC3)cc2)cc1)=C1CCCCC1"
  Category label: "rule met"
- Molecule: "CCCCCCn1c2c(c3cc(-c4ccc5ccc6cccc7ccc4c5c67)ccc31)-c1c(c3cc(-c4ccc5ccc6cccc7ccc4c5c67)ccc3n1CCCCCC)-c1c(c3cc(-c4ccc5ccc6cccc7ccc4c5c67)ccc3n1CCCCCC)-c1c-2c2cc(-c3ccc4ccc5cccc6ccc3c4c56)ccc2n1CCCCCC"
  Category label: "rule met"
- Molecule: "O=C(c1ccc2c3c(cccc13)-c1cccc3c1C2CC=C3)c1c(CCc2ccccc2)c2ccc3cccc4c5cccc6ccc1c(c65)c2c34 (centres undefined)"
  Category label: "rule not met"
- Molecule: "COc1ccc(C#Cc2c3cc4ccccc4cc3c(C#Cc3ccc(OC)cc3)c3cc4sc(C)cc4cc23)cc1"
  Category label: "rule not met"
- Molecule: "CCCCCCCCCCCCCCCCCCOc1ccc([B-]23NC(c4ccccc4)=Nc4cccc([n+]42)N=C(c2ccccc2)N3)cc1"
  Category label: "rule not met"
- Molecule: "Cc1cc(O)c(C(=O)/C=C/c2ccccc2O)c(=O)o1"
  Category label: "rule met"
- Molecule: "O=[N+]([O-])c1ccc([N+]2=Cc3ccc4c5c(ccc4c3O[B-]2(c2ccccc2)c2ccccc2)C=[N+](c2ccc([N+](=O)[O-])cc2)[B-](c2ccccc2)(c2ccccc2)O5)cc1"
  Category label: "rule not met"
- Molecule: "COc1ccc(-c2c3ccccc3c(-c3ccc(OC)cc3)c3ccccc23)cc1"
  Category label: "rule met"
- Molecule: "CN(C)c1ccc(/C=C/c2ncccn2)cc1"
  Category label: "rule met"
- Molecule: "O=S(=O)(c1ccccc1)c1ccc(-c2ccc3c(c2)c2cc(-c4ccc(S(=O)(=O)c5ccccc5)cc4)ccc2n3-c2ccccc2)cc1"
  Category label: "rule met"
- Molecule: "COc1cccc(C2=C3C=C(/C=C/C(=O)OC(C)(C)C)C=[N+]3[B-](F)(F)n3cccc32)c1"
  Category label: "rule not met"
- Molecule: "COc1ccc(/C=C/c2cc(/C=C/c3ccc(OC)cc3)nc(/C=C/c3ccc(OC)cc3)n2)cc1"
  Category label: "rule met"
- Molecule: "Cc1c2ccccc2c(C2=C3C=CC=[N+]3[B-](F)(F)n3cccc32)c2ccccc12"
  Category label: "rule not met"
- Molecule: "F[B-]1(F)n2c(ccc2N2CCOCC2)C(c2ccccc2)=C2C=CC(N3CCOCC3)=[N+]21"
  Category label: "rule not met"
- Molecule: "CN(C)/C=N\\c1ccc2c3c(cccc13)C(=O)c1ccccc1-2"
  Category label: "rule not met"
- Molecule: "CC(=O)c1c2c(cc3ccc(N(C)C)cc13)CCC2"
  Category label: "rule met"
- Molecule: "CCCCCCCCCCCCCCCC[n+]1ccc(/C=C(\\C)c2ccccc2)cc1"
  Category label: "rule met"
- Molecule: "CN(C)c1ccc(C#Cc2ccc3ccc4ccc(C#Cc5ccc(N(C)C)cc5)c5ccc2c3c45)cc1"
  Category label: "rule not met"
- Molecule: "CCCCN1C(=O)c2cc(Oc3ccc(C(C)(C)C)cc3)c3c4c(Oc5ccc(C(C)(C)C)cc5)cc5c(=O)[nH]/c(=C\\c6ccc7ccccc7n6)c6cc(Oc7ccc(C(C)(C)C)cc7)c(c7c(Oc8ccc(C(C)(C)C)cc8)cc(c2c37)C1=O)c4c56"
  Category label: "rule not met"
